# Procedure Summary: Cytotoxicity against multidrug-resistant human KBV1 cells after 48 hrs by MTS/PMS assay
# Assay type: functional, cell-based
# Details: KB-V1, 48 h
Assay Readout: pIC50
# pIC50: negative log10 of molar concentration; output just the value

CC(C)C1=Cc2ccc3c(c2C(=O)C1=O)C(=O)CCC3(C)C
4.32
C[C@H]1COC2=C1C(=O)C(=O)c1c2ccc2c1CCCC2(C)C
5.12

Now for another entry.
Name the recorded pIC50 for C[C@H]1COC2=C1C(=O)C(=O)c1c2ccc2c1[C@H](O)CCC2(C)C .
5.25

Cited source: ChEMBL document CHEMBL1156370
